Documented pIC50 across a set of compounds
# Test system: HL60
# assay info: XTT cytotoxicity assay, HL-60
# Format: cell-based
# condition parameters: Homo sapiens, HL-60; 72 h incubation; read-out: XTT, IC50 HL60
pIC50: −log10 of the molar value.
observable: pIC50

smiles_notation=CSc1ncnc2c1c(-c1cccs1)cn2[C@@H]1O[C@H](CO)[C@@H](O)[C@H]1O value_qualifier== test_value=5.95
smiles_notation=C#Cc1cn([C@@H]2O[C@H](CO)[C@@H](O)[C@H]2O)c2ncnc(NC)c12 value_qualifier== test_value=5.04
smiles_notation=CNc1ncnc2c1c(-c1cccs1)cn2[C@@H]1O[C@H](CO)[C@@H](O)[C@H]1O value_qualifier=< test_value=4.70
smiles_notation=COc1ncnc2c1c(-c1ccccc1)cn2[C@@H]1O[C@H](CO)[C@@H](O)[C@H]1O value_qualifier=< test_value=4.70
smiles_notation=Cc1ncnc2c1c(-c1cc3ccccc3o1)cn2[C@@H]1O[C@H](CO)[C@@H](O)[C@H]1O value_qualifier=< test_value=4.70
smiles_notation=COc1ncnc2c1c(-c1ccoc1)cn2[C@@H]1O[C@H](CO)[C@@H](O)[C@H]1O value_qualifier== test_value=6.82
smiles_notation=CSc1ncnc2c1c(-c1ccco1)cn2[C@@H]1O[C@H](CO)[C@@H](O)[C@H]1O value_qualifier== test_value=6.92
smiles_notation=CN(C)c1ncnc2c1c(-c1ccccc1)cn2[C@@H]1O[C@H](CO)[C@@H](O)[C@H]1O value_qualifier=< test_value=4.70

----------
Documented pEC50 across a set of compounds
# System: HCV subtype 2A replicon in Huh-7 cells
# assay info: HCV sub-genomic reporter replicon assay, subtype 2A
# Type: cell-based
# condition parameters: Hepatitis C virus; Huh-7 cells, HCV subtype 2A replicon; read-out: Replicon 2A EC50
pEC50: −log10 of the molar value.
observable: pEC50

compound="COc1ncnc2c1ccn2[C@@H]1O[C@H](CO)[C@@H](O)[C@H]1O [RC1, reference compound]" test_value="< 4.36"
compound="CSc1ncnc2c1c(-c1cccs1)cn2[C@@H]1O[C@H](CO)[C@@H](O)[C@H]1O [Compound 2c]" test_value="< 4.36"
compound="COc1ncnc2c1c(-c1cccs1)cn2[C@@H]1O[C@H](CO)[C@@H](O)[C@H]1O [Compound 1c]" test_value="< 4.36"
compound="CN(C)c1ncnc2c1c(-c1cc3ccccc3o1)cn2[C@@H]1O[C@H](CO)[C@@H](O)[C@H]1O [Compound 4f]" test_value="< 4.36"
compound="COc1ncnc2c1c(-c1cc3ccccc3o1)cn2[C@@H]1O[C@H](CO)[C@@H](O)[C@H]1O [Compound 1f]" test_value=4.99
compound="COc1ncnc2c1c(-c1ccoc1)cn2[C@@H]1O[C@H](CO)[C@@H](O)[C@H]1O [Compound 1b]" test_value=5.08
compound="CNc1ncnc2c1c(-c1ccsc1)cn2[C@@H]1O[C@H](CO)[C@@H](O)[C@H]1O [Compound 3d]" test_value="< 4.36"
compound="COc1ncnc2c1c(-c1ccsc1)cn2[C@@H]1O[C@H](CO)[C@@H](O)[C@H]1O [Compound 1d]" test_value="< 4.36"
compound="CNc1ncnc2c1c(-c1cccs1)cn2[C@@H]1O[C@H](CO)[C@@H](O)[C@H]1O [Compound 3c]" test_value="< 4.36"
compound="CNc1ncnc2c1c(-c1ccoc1)cn2[C@@H]1O[C@H](CO)[C@@H](O)[C@H]1O [Compound 3b]" test_value="< 4.36"
compound="Cc1ncnc2c1c(-c1ccoc1)cn2[C@@H]1O[C@H](CO)[C@@H](O)[C@H]1O [Compound 5b]" test_value="< 4.36"
compound="C#Cc1cn([C@@H]2O[C@H](CO)[C@@H](O)[C@H]2O)c2ncnc(N(C)C)c12 [Compound 4g]" test_value=7.00
compound="Cc1ncnc2c1c(-c1ccsc1)cn2[C@@H]1O[C@H](CO)[C@@H](O)[C@H]1O [Compound 5d]" test_value="< 4.36"
compound="CSc1ncnc2c1c(-c1ccoc1)cn2[C@@H]1O[C@H](CO)[C@@H](O)[C@H]1O [Compound 2b]" test_value="< 4.36"
compound="CNc1ncnc2c1c(-c1ccccc1)cn2[C@@H]1O[C@H](CO)[C@@H](O)[C@H]1O [Compound 3e]" test_value="< 4.36"
compound="COc1ncnc2c1c(-c1ccccc1)cn2[C@@H]1O[C@H](CO)[C@@H](O)[C@H]1O [Compound 1e]" test_value="< 4.36"

----------
# Tested on: HCV subtype 2A replicon in Huh-7 cells
# assay info: HCV sub-genomic reporter replicon assay, subtype 2A
# Type: cell-based
# condition parameters: Hepatitis C virus; Huh-7 cells, HCV subtype 2A replicon; read-out: Replicon 2A EC50
Documented EC50 across a set of compounds
observable: EC50

smiles_notation=CN(C)c1ncnc2c1c(-c1ccco1)cn2[C@@H]1O[C@H](CO)[C@@H](O)[C@H]1O test_value="1350 nM"
smiles_notation=CSc1ncnc2c1c(-c1ccsc1)cn2[C@@H]1O[C@H](CO)[C@@H](O)[C@H]1O test_value="> 44000 nM"
smiles_notation=CN(C)c1ncnc2c1c(-c1cccs1)cn2[C@@H]1O[C@H](CO)[C@@H](O)[C@H]1O test_value="> 44000 nM"
smiles_notation=C#Cc1cn([C@@H]2O[C@H](CO)[C@@H](O)[C@H]2O)c2ncnc(SC)c12 test_value="> 44000 nM"
smiles_notation=COc1ncnc2c1c(-c1ccco1)cn2[C@@H]1O[C@H](CO)[C@@H](O)[C@H]1O test_value="30 nM"

----------
# Tested on: HeLa S3
# assay info: XTT cytotoxicity assay, HeLa S3
# Format: cell-based
# condition parameters: Homo sapiens, HeLa S3; 72 h incubation; read-out: XTT, IC50 HeLa S3
pIC50: −log10 of the molar value.
observable: pIC50

molecule="COc1ncnc2c1c(-c1ccco1)cn2[C@@H]1O[C@H](CO)[C@@H](O)[C@H]1O [Compound 1a]" measured_target="HeLa S3" observable=pIC50 value_qualifier== test_value=5.99
molecule="CSc1ncnc2c1c(-c1cccs1)cn2[C@@H]1O[C@H](CO)[C@@H](O)[C@H]1O [Compound 2c]" measured_target="HeLa S3" observable=pIC50 value_qualifier== test_value=5.71
molecule="Cc1ncnc2c1c(Br)cn2[C@@H]1O[C@H](CO)[C@@H](O)[C@H]1O [Compound 5i]" measured_target="HeLa S3" observable=pIC50 value_qualifier== test_value=4.86
molecule="CSc1ncnc2c1c(-c1ccco1)cn2[C@@H]1O[C@H](CO)[C@@H](O)[C@H]1O [Compound 2a]" measured_target="HeLa S3" observable=pIC50 value_qualifier== test_value=6.27
molecule="CNc1ncnc2c1c(-c1cccs1)cn2[C@@H]1O[C@H](CO)[C@@H](O)[C@H]1O [Compound 3c]" measured_target="HeLa S3" observable=pIC50 value_qualifier=< test_value=4.70
molecule="CN(C)c1ncnc2c1c(-c1ccoc1)cn2[C@@H]1O[C@H](CO)[C@@H](O)[C@H]1O [Compound 4b]" measured_target="HeLa S3" observable=pIC50 value_qualifier== test_value=5.04
molecule="C#Cc1cn([C@@H]2O[C@H](CO)[C@@H](O)[C@H]2O)c2ncnc(C)c12 [Compound 5g]" measured_target="HeLa S3" observable=pIC50 value_qualifier== test_value=4.83
molecule="Cc1ncnc2c1c(-c1ccsc1)cn2[C@@H]1O[C@H](CO)[C@@H](O)[C@H]1O [Compound 5d]" measured_target="HeLa S3" observable=pIC50 value_qualifier== test_value=4.84

----------
# System: Huh-7 cells harboring replicon 2A
# assay info: Cytotoxicity in replicon 2A cells
# Format: cell-based
# condition parameters: HCV subtype 2A replicon
observable: CC50

compound="CN(C)c1ncnc2c1c(-c1ccccc1)cn2[C@@H]1O[C@H](CO)[C@@H](O)[C@H]1O [Compound 4e]" test_value="> 44 µM"
compound="Cc1ncnc2c1c(-c1ccco1)cn2[C@@H]1O[C@H](CO)[C@@H](O)[C@H]1O [Compound 5a]" test_value="43.6 µM"
compound="CNc1ncnc2c1c(-c1ccoc1)cn2[C@@H]1O[C@H](CO)[C@@H](O)[C@H]1O [Compound 3b]" test_value="> 44 µM"
compound="COc1ncnc2c1c(-c1ccccc1)cn2[C@@H]1O[C@H](CO)[C@@H](O)[C@H]1O [Compound 1e]" test_value="> 44 µM"
compound="CN(C)c1ncnc2c1c(-c1cccs1)cn2[C@@H]1O[C@H](CO)[C@@H](O)[C@H]1O [Compound 4c]" test_value="> 44 µM"
compound="CSc1ncnc2c1c(-c1cc3ccccc3o1)cn2[C@@H]1O[C@H](CO)[C@@H](O)[C@H]1O [Compound 2f]" test_value="> 44 µM"
compound="CSc1ncnc2c1c(-c1ccsc1)cn2[C@@H]1O[C@H](CO)[C@@H](O)[C@H]1O [Compound 2d]" test_value="> 44 µM"
compound="C#Cc1cn([C@@H]2O[C@H](CO)[C@@H](O)[C@H]2O)c2ncnc(SC)c12 [Compound 2g]" test_value="> 44 µM"
